assayNotes: AUC (0 to 12 hrs) in fasting healthy human at 100 mg, po administered every 12 hrs measured between 72 to 84 hrs postdose
Type: ADME, organism-based
Set-up: dose 100 mg, time < 12 hr, route oral
measurementConditions: plasma
readoutType: AUC at 12 h (ng·h/mL)
Answers are plain numbers, in ng·h/mL.

// field: AUC at 12 h; key: `NCCCCN(Cc1nc2ccccc2[nH]1)[C@H]1CCCc2cccnc21` ; value = 937

----------
assayNotes: Drug level in fasting healthy human at 400 mg, po administered every 12 hrs measured after 84 hrs
Assay type: ADME, organism-based
measurementConditions: in vivo, read-out: Drug uptake
readoutType: concentration at 84 h (ng/mL)
Numbers only, in ng/mL.

Form field concentration at 84 h, entry `NCCCCN(Cc1nc2ccccc2[nH]1)[C@H]1CCCc2cccnc21` : 137

----------
assayNotes: Tmax in fasting healthy human at 100 mg, po administered every 12 hrs
Type: ADME, organism-based
measurementConditions: in vivo
readoutType: Tmax (h)
Numbers only, in h.

For this compound ( `NCCCCN(Cc1nc2ccccc2[nH]1)[C@H]1CCCc2cccnc21` ), measured Tmax is 1.7

----------
assayNotes: Half life in rat
Format: ADME, organism-based
measurementConditions: in vivo
readoutType: half-life (h)
Give bare numbers, in h.

Per the record, `NCCCCN(Cc1nc2ccccc2[nH]1)[C@H]1CCCc2cccnc21` has half-life of 1.4

----------
assayNotes: Oral bioavailability in rat
Format: ADME, organism-based
measurementConditions: in vivo
readoutType: bioavailability (%)
One number for each entry, in %.

Reported bioavailability ( `NCCCCN(Cc1nc2ccccc2[nH]1)[C@H]1CCCc2cccnc21` ) = 20

----------
assayNotes: Tmax in fasting healthy human at 400 mg, po administered every 12 hrs
Assay type: ADME, organism-based
measurementConditions: in vivo
readoutType: Tmax (h)
One number for each entry, in h.

Value of Tmax reported for the compound NCCCCN(Cc1nc2ccccc2[nH]1)[C@H]1CCCc2cccnc21 [MAVORIXAFOR] is 1.8

----------
assayNotes: Drug level in fasting healthy human at 200 mg, po administered as single dose after 12 hrs
Type: ADME, organism-based
measurementConditions: in vivo, read-out: Drug uptake
readoutType: concentration at 12 h (ng/mL)
One number for each entry, in ng/mL.

The value of concentration at 12 h measured for the molecule `NCCCCN(Cc1nc2ccccc2[nH]1)[C@H]1CCCc2cccnc21` turned out to be 11.6

----------
assayNotes: Tmax in fasting healthy human at 100 mg, po administered as single dose
Assay type: ADME, organism-based
measurementConditions: in vivo
readoutType: Tmax (h)
Give bare numbers, in h.

# compound NCCCCN(Cc1nc2ccccc2[nH]1)[C@H]1CCCc2cccnc21 [MAVORIXAFOR] ; its Tmax = 1.5

----------
assayNotes: Tmax in fasting healthy human at 50 mg, po administered as single dose
Format: ADME, organism-based
measurementConditions: in vivo
readoutType: Tmax (h)
Answers are plain numbers, in h.

Lab note: measured Tmax of NCCCCN(Cc1nc2ccccc2[nH]1)[C@H]1CCCc2cccnc21 [MAVORIXAFOR] was 1.5

----------
assayNotes: Tmax in fasting healthy human at 400 mg, po administered as single dose
Assay type: ADME, organism-based
measurementConditions: in vivo
readoutType: Tmax (h)
One number for each entry, in h.

The reported value for NCCCCN(Cc1nc2ccccc2[nH]1)[C@H]1CCCc2cccnc21 [MAVORIXAFOR] in terms of Tmax is 1.5

----------
assayNotes: Drug level in fasting healthy human at 200 mg, po administered every 12 hrs measured after 84 hrs
Format: ADME, organism-based
measurementConditions: in vivo, read-out: Drug uptake
readoutType: concentration at 84 h (µg/mL)
Give bare numbers, in µg/mL.

Summary for this molecule, `NCCCCN(Cc1nc2ccccc2[nH]1)[C@H]1CCCc2cccnc21` : concentration at 84 h is 0.033

----------
assayNotes: Drug level in fasting healthy human at 400 mg, po administered every 12 hrs measured after 72 hrs
Type: ADME, organism-based
measurementConditions: in vivo, read-out: Drug uptake
readoutType: concentration at 72 h (ng/mL)
Numbers only, in ng/mL.

Item: `NCCCCN(Cc1nc2ccccc2[nH]1)[C@H]1CCCc2cccnc21` | concentration at 72 h: 122

----------
assayNotes: Tmax in fasting healthy human at 200 mg, po administered every 12 hrs
Assay type: ADME, organism-based
measurementConditions: in vivo
readoutType: Tmax (h)
Numbers only, in h.

The recorded Tmax for `NCCCCN(Cc1nc2ccccc2[nH]1)[C@H]1CCCc2cccnc21` is 1.8

----------
assayNotes: Cmax in fasting healthy human at 100 mg, po administered every 12 hrs
Assay type: ADME, organism-based
Design: dose 100 mg, route oral
measurementConditions: in vivo
readoutType: Cmax (ng/mL)
Answers are plain numbers, in ng/mL.

Value of measured Cmax for the entry `NCCCCN(Cc1nc2ccccc2[nH]1)[C@H]1CCCc2cccnc21` : 461

----------
assayNotes: Cmax in fasting healthy human at 200 mg, po administered every 12 hrs
Format: ADME, organism-based
Parameters: dose 200 mg, route oral
measurementConditions: in vivo
readoutType: Cmax (ng/mL)
One number for each entry, in ng/mL.

The reported Cmax of the compound NCCCCN(Cc1nc2ccccc2[nH]1)[C@H]1CCCc2cccnc21 [MAVORIXAFOR] was 793

----------
assayNotes: Cmax in fasting healthy human at 100 mg, po administered as single dose
Type: ADME, organism-based
Design: dose 100 mg, route oral
measurementConditions: in vivo
readoutType: Cmax (ng/mL)
Answers are plain numbers, in ng/mL.

// recorded Cmax for NCCCCN(Cc1nc2ccccc2[nH]1)[C@H]1CCCc2cccnc21 [MAVORIXAFOR] : 276

----------
assayNotes: AUC (0 to 12 hrs) in fasting healthy human at 200 mg, po administered every 12 hrs measured between 72 to 84 hrs postdose
Assay type: ADME, organism-based
Design: dose 200 mg, time < 12 hr, route oral
measurementConditions: plasma
readoutType: AUC at 12 h
Dear colleague, please send the value followed by its unit.

GET /value?item= NCCCCN(Cc1nc2ccccc2[nH]1)[C@H]1CCCc2cccnc21 [MAVORIXAFOR] &field=AUC at 12 h returns 1590 ng·h/mL

----------
assayNotes: Drug level in fasting healthy human at 400 mg, po administered as single dose after 12 hrs
Assay type: ADME, organism-based
measurementConditions: in vivo, read-out: Drug uptake
readoutType: concentration at 12 h (ng/mL)
Numbers only, in ng/mL.

Short answer for `NCCCCN(Cc1nc2ccccc2[nH]1)[C@H]1CCCc2cccnc21` : concentration at 12 h was 44.6

----------
assayNotes: Cmax in fasting healthy human at 400 mg, po administered every 12 hrs
Format: ADME, organism-based
Parameters: dose 400 mg, route oral
measurementConditions: in vivo
readoutType: Cmax (ng/mL)
Give bare numbers, in ng/mL.

The compound listed as `NCCCCN(Cc1nc2ccccc2[nH]1)[C@H]1CCCc2cccnc21` has a reported Cmax of 2300

----------
assayNotes: Tmax in fasting healthy human at 200 mg, po administered as single dose
Assay type: ADME, organism-based
measurementConditions: in vivo
readoutType: Tmax (h)
Numbers only, in h.

Record `NCCCCN(Cc1nc2ccccc2[nH]1)[C@H]1CCCc2cccnc21` , field Tmax: 1

----------
assayNotes: Drug level in fasting healthy human at 100 mg, po administered as single dose after 12 hrs
Format: ADME, organism-based
measurementConditions: in vivo, read-out: Drug uptake
readoutType: concentration at 12 h (ng/mL)
One number for each entry, in ng/mL.

In plain terms, `NCCCCN(Cc1nc2ccccc2[nH]1)[C@H]1CCCc2cccnc21` has a documented concentration at 12 h of 2.1
